- Run description: qHTS for Activators of Parkin Expression: LOPAC Validation Assay (NLuc Reporter) (AID 720572)
- Condition set: Parkin promoter NanoLuc reporter cells, luminescence; series mostly up to 46.1 µM
Records with an inconclusive call do not appear. Activity calls are given as the source filed them. Calls come from the whole dose curve; as a rule, active = well fitted activation curve with a large enough effect; inconclusive = small, poorly fitted or top-dose-only effect; inactive = flat fitted curve, though single readings scatter.
Hi! Could you answer with just one of these? active, inactive

Test call for this compound, please: O=C1Cc2c([nH]c3ccc(Br)cc23)-c2ccccc2N1
active

// next record C=C1C[C@@]23CC[C@H]4[C@@](C)(CCC[C@@]4(C)C(=O)O)[C@@H]2CC[C@]1(O)C3
inactive

Same thing, different compound: N[C@@H](CCCC(=O)O)C(=O)O
inactive

Also check NC(N)=NC(N)=Nc1cccc(Cl)c1
inactive

Check NC(N)=NC(N)=Nc1ccccc1 too.
inactive

Check CCC1(O)CC2CN(CCc3c([nH]c4ccccc34)[C@@](C(=O)OC)(c3cc4c(cc3OC)N(C)C3[C@]45CCN4CC=C[C@@](CC)([C@@H](OC(C)=O)[C@]3(O)C(=O)OC)[C@H]45)C2)C1 (stereo partly drawn) too.
inactive

Next: CC(C)C[C@H](NC(=O)C1OC1C(=O)O)C(=O)NCCCCN=C(N)N (stereo partly drawn)
inactive

Similarly, O=c1onc2cnc3ccccc3n12 ?
inactive

Lookup CCN(CC)CCOC(=O)c1cc(Cl)c(N)cc1OC
inactive

Input CCCc1c(OCCCOc2ccc(OCC(=O)O)cc2)ccc(C(C)=O)c1O
inactive

* * *

- Measured target: Chromobox protein homolog 1 (Homo sapiens) (UniProt P83916)
- Sequence (P83916 whole entry, looked up): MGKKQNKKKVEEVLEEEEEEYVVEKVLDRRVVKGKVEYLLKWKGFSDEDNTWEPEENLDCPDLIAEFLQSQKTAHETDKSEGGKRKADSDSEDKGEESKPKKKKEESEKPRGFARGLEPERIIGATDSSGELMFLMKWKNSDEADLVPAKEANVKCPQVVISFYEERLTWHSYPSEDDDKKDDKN
- Run description: qHTS Validation Assay for Inhibitors of HP1-beta Chromodomain Interactions with Methylated Histone Tails (AID 488953); note: nearly all actives have a fitted effect of over 50% in size; note: potency is the fitted concentration of half-maximal effect
- Condition set: HP1-beta chromodomain / methylated histone peptide binding assay; series mostly up to 114 µM
- Description: As our understanding of epigenetics expands, it is becoming clear that players in this field are potential targets for drug development. […] Low-affinity protein-protein interactions (Kd in the single- to double-digit micromolar range) such as those discussed here have been very difficult to assay by traditional techniques such as fluorescence polarization or fluorescence resonance energy transfer. […]
Records with an inconclusive call do not appear. Activity calls are given as the source filed them. The call rests on the fitted dose curve; in most records, active means well fitted inhibition curve with a large enough effect; inconclusive means small, poorly fitted or top-dose-only effect; inactive means no such curve, though single readings can be large or run the other way.
Measured metric: Potency

O=c1[nH]c(=S)[nH]c(-c2ccccc2)c1Cc1c(O)ccc2ccccc12    44.7 µM (active)
Nc1ncnc2c1ncn2C1CCCO1 (stereo unspecified)    0.006 µM (active)
N[C@H](C(=O)O)[C@H](O)C(=O)O    inactive
COc1cccc(OC)c1OCCNCC1CSc2ccccc2O1 (stereo unspecified)    inactive

So what Potency did CCCCCCC(=O)OC1CC(C)(C)NC(C)(C)C1 get with Chromobox protein homolog 1 (Homo sapiens) (UniProt P83916)?
inactive

How about this molecule: CCCCOc1cc(CC2CNC(=O)N2)ccc1OC (stereo unspecified)
inactive

Here is the next molecule: CC[n+]1c(/C=C/C=C2/N(C)c3ccccc3C2(C)C)sc2ccccc21
25.1 µM (active)

Moving on to COC(=O)C(N)Cc1ccc(Cl)cc1 (stereo unspecified)
0.0067 µM (active)

Repeat for the following molecule: COc1cc2c(CCNC(C)=O)c[nH]c2cc1O
inactive

* * *

- Measured target: Chromobox protein homolog 1 (Homo sapiens)
- Run description: qHTS Validation Assay for Inhibitors of HP1-beta Chromodomain Interactions with Methylated Histone Tails (AID 488953); note: nearly all actives have a fitted effect of over 50% in size; note: potency is the fitted concentration of half-maximal effect
- Condition set: HP1-beta chromodomain / methylated histone peptide binding assay; series mostly up to 114 µM
Inconclusive results are not listed. Active and inactive are the calls of the source. The call rests on the fitted dose curve; in most records, active means well fitted inhibition curve with a large enough effect; inconclusive means small, poorly fitted or top-dose-only effect; inactive means no such curve, though single readings can be large or run the other way.
Measured metric: Potency

The examples below pair each entry with its known result.
CCCn1c(=O)c2c(ncn2C)n(CCC)c1=O    inactive
OC[C@H]1O[C@@H](n2cnc3cncnc32)[C@H](O)[C@@H]1O    inactive
Oc1cc(O)c2c(c1)O[C@H](c1ccc(O)c(O)c1)[C@@H](O)C2    inactive
CC1CCN=C(N)S1 (stereo unspecified)    inactive
c1ccc2nc(C3=NCCN3)ccc2c1    inactive

Name the reported Potency value associated with the compound CCN(CC)CCOC(=O)c1cc(Cl)c(N)cc1OC
inactive

Cn1c(=O)[nH]c2ncn(C)c2c1=O ?
inactive

Follow-up entry: CCCOC(=O)c1c(-c2ccccc2)nc(CC)c(C(=O)SCC)c1CCC
inactive

Also O=C(O)CCC(=O)N1CCCC1C(=O)O (stereo unspecified) , if possible.
inactive

How about this compound: O=C(O)[C@H]1NCCC[C@H]1C(=O)O
inactive

* * *

- Measured target: Glucagon-like peptide 1 receptor (Homo sapiens)
- Run description: qHTS of GLP-1 Receptor Agonists: LOPAC Validation (AID 624148);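 note: luminescence from a luciferase reporter switched on by cAMP; higher luminescence signal means agonism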
- Condition set: GLP-1R agonist cell assay; series mostly up to 46.1 µM
Records with an inconclusive call do not appear. Calls of active or inactive are those of the source. Calls follow the shape of the dose curve; as a rule, active = well fitted curve in the direction sought with a large enough effect; inconclusive = small, poorly fitted or top-dose-only effect, or another doubt; inactive = no such curve, though single readings can be large or run the other way. Residues, ends and D or L forms follow the SMILES beside them. *: point of attachment. Cbz = O=C(OCc1ccccc1)*
Measured metric: outcome

Known results for compounds:
CC(C)[C@H](NC(=O)OCc1ccccc1)C(=O)N[C@H](C=O)Cc1ccccc1 (Cbz-Val-Phe-aldehyde)    inactive
O=C1C2C=CC=CC2=NC(=S)N1CCN1CCC(=C(c2ccc(F)cc2)c2ccc(F)cc2)CC1 (configuration not stated)    inactive
CC(=O)SC1CC2=CC(=O)CC[C@]2(C)C2CC[C@@]3(C)C(CC[C@@]34CCC(=O)O4)C12 (some centres not stated)    inactive
CN1CC(O)C(O)C(O)C1CO (configuration not stated)    inactive
C[N+](C)(C)CC=O    inactive

Could you tell me which outcome is on file for NCCS(=O)O ?
inactive

Now this one: CCCCCC(O)CCCC(=O)O (configuration not stated)
inactive

Param item: O=C1OC(=O)C2C3CCC(O3)C12 (configuration not stated)
inactive

Then what about the compound COc1ccc(CCN(C)CCc2ccc(OC)c(OC)c2)cc1OC ?
inactive

Input CCCCCCCCCCC(C)(C)C(=O)Nc1c(OC)cc(OC)cc1OC
inactive

Also check Cc1cc2c(cc1Cl)N(C(=O)Nc1ccnc3ccccc13)CC2
inactive

Now give it for CCCCCCN(CCCCCC)C(=O)Cc1c(-c2ccc(F)cc2)[nH]c2ccccc12 too.
inactive

* * *

- Run description: Validation screen for small molecules that induce DNA re-replication in SW480 colon adenocarcinoma cells (AID 504364)
- Condition set: DNA re-replication phenotype (high-content imaging); series mostly up to 46.1 µM
Inconclusive results are not listed. The source made the active and inactive calls. Calls follow the shape of the dose curve; as a rule, active = well fitted activation curve with a large enough effect; inconclusive = small, poorly fitted or top-dose-only effect; inactive = flat fitted curve, though single readings scatter.
Measured metric: outcome

The following compounds have reported results that may help.
CC(=O)NCCc1c[nH]c2ccc(O)cc12    inactive
NC1C=CC=C(C(=O)O)C1 (configuration not stated)    inactive
CCOC(=O)C12CC1/C(=N/O)c1ccccc1O2 (configuration not stated)    inactive
O=c1cc(O)cc(/C=C/c2ccc(O)c(O)c2)o1    inactive
CCCCOc1cc(CC2CNC(=O)N2)ccc1OC (configuration not stated)    inactive
COC(=O)C(N)Cc1ccc(Cl)cc1 (configuration not stated)    inactive
COc1cc(CC(=O)O)ccc1O    inactive
COc1ccc(CCN(C)CCc2ccc(OC)c(OC)c2)cc1OC    inactive
NC(N)=[N+]1CCc2ccccc2C1    inactive
N=C(N)SCCN    inactive

Suppose we examine the compound CC(/C=C/c1cccc(Oc2ccc(F)cc2)c1)N(O)C(N)=O (configuration not stated) ; what outcome value has been reported?
inactive

// repeat for N#Cc1cc2nc(O)c(O)nc2cc1[N+](=O)[O-] and report
inactive

* * *

- Run description: High Content Imaging Cell-Based qHTS for Inhibitors of the mTORC1 Signaling Pathway in MEF (Tsc2-/-, p53-/-) Cells (AID 2666);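 note: percent of cells scored positive for phospho-rpS6 Ser235/236 immunostaining by imaging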
- Condition set: series mostly up to 38.3 µM
- From the text: NIH Molecular Libraries Probe Production Centers Network [MLPCN] NIH Chemical Genomics Center [NCGC] Assay Submitter (PI): Blenis, John; Hoffman, Greg; Harvard University […] For quantitative high throughput analysis of mTORC1 signaling, we developed a cell-based assay for immuno-fluorescence based detection of rpS6 phosphorylation on the Acumen Explorer that will be used a platform for the primary small molecule screen. […]
Results filed as inconclusive are left out. Active and inactive are the calls of the source. Calls follow the shape of the dose curve; as a rule, active = well fitted inhibition curve with a large enough effect; inconclusive = small, poorly fitted or top-dose-only effect; inactive = flat fitted curve, though single readings scatter.
Pick from active, inactive when you respond.

C=C1C(=O)O[C@@H]2[C@H]3O[C@]3(C)CCC=C(C)CC[C@@H]12    inactive
CC(/C=C/c1cccc(Oc2ccc(F)cc2)c1)N(O)C(N)=O (centres undefined)    inactive
C=CCn1c(=O)c2c(nc(-c3ccc(S(=O)(=O)O)cc3)n2C)n(C)c1=O    inactive
CC(N)(Cc1ccc(O)cc1)C(=O)O (centres undefined)    inactive
CCCCOc1cc(CC2CNC(=O)N2)ccc1OC (centres undefined)    inactive
CCCc1c(-c2ccc(O)cc2)nn(-c2ccc(O)cc2)c1-c1ccc(O)cc1    inactive
COC1(C2=NCCN2)COc2ccccc2O1 (centres undefined)    inactive
CCCn1c(=O)c2c(ncn2C)n(CCC)c1=O    inactive

Outcome logged for Cn1c(=O)c2[nH]c(C3CCCC3)nc2n(C)c1=O in this assay:
inactive

Same lookup for CC(=O)SC1CC2=CC(=O)CC[C@]2(C)C2CC[C@@]3(C)C(CC[C@@]34CCC(=O)O4)C12 (some centres undefined) , please.
inactive

And for CN(C)CCC(c1ccc(Br)cc1)c1ccccn1 (centres undefined) ?
inactive

Also Cc1ccc([N+](=O)[O-])cc1S(=O)(=O)N(C)C ?
inactive

Likewise for CCCCCCCCCCCCCCCCCCOC[C@H](COP(=O)([O-])OCC[N+](C)(C)C)OC ?
inactive
